Target: PI3K-α (Homo sapiens, UniProt P42336)
Sequence (P42336 whole entry, species assumed): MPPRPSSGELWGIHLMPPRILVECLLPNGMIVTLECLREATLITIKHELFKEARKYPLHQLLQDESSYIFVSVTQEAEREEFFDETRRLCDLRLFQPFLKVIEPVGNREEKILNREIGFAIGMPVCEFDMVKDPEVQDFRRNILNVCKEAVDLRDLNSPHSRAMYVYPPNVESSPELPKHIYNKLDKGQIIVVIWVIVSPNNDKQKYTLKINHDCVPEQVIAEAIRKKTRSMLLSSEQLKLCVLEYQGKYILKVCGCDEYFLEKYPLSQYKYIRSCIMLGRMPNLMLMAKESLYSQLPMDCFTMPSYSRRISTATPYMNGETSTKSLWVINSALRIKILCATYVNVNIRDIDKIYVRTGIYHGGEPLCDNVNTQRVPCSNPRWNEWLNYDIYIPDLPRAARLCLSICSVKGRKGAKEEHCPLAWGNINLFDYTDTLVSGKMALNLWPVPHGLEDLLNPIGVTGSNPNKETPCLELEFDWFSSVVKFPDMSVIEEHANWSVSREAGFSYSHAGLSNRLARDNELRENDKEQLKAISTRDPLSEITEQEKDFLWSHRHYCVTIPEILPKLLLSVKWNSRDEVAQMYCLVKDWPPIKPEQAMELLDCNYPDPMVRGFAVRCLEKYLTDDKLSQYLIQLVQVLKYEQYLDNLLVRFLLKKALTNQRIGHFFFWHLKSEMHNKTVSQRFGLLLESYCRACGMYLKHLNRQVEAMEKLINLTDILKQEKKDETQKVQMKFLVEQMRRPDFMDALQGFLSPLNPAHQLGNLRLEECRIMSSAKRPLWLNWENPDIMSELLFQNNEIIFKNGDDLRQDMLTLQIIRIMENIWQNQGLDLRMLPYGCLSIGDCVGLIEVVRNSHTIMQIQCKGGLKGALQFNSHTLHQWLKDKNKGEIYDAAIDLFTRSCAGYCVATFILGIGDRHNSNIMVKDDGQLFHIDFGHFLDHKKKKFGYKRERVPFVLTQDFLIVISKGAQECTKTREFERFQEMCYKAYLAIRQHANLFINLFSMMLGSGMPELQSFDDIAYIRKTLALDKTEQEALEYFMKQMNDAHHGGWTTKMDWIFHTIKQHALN
Sequence (P27986 whole entry partner, species assumed): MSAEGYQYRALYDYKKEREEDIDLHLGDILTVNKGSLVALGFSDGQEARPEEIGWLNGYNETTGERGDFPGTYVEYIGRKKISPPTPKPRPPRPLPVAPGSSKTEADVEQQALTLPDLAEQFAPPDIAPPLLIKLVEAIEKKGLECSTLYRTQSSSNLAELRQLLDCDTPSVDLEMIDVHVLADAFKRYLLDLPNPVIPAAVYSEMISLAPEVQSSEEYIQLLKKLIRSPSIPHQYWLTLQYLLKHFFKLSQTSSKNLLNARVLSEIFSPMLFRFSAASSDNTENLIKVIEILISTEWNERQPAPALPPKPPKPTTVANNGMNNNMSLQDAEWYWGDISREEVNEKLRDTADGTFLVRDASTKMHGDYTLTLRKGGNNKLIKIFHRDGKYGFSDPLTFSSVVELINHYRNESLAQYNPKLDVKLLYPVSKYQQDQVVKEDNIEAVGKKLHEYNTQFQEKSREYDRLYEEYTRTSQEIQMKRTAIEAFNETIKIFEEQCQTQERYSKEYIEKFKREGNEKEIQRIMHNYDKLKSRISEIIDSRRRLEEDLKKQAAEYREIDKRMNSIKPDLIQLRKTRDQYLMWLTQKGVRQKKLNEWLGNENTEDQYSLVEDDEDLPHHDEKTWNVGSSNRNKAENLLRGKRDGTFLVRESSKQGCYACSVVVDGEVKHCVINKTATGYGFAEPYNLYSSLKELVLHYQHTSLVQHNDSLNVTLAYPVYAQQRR
Experiment: PI3K-alpha fluorescence polarization assay
Settings: read-out: IC50 PI3Kα
readout.kind: IC50 (nM)
Supply the numeric figure in nM, leaving out any unit text.

Quick one: IC50 for O=C(Nc1ccncc1)Nc1ccc(-c2nc(N3CCOCC3)nc(N3C4COCC3C(O)C4)n2)cc1 (stereo not shown) ? 4

// repeat for "O=C(Nc1ccncc1)Nc1ccc(-c2nc(NCC3CNC3)nc(N3CCOCC3)n2)cc1" and report 14

Entry "O=C(Nc1ccc(C(=O)N2CCSCC2)cc1)Nc1ccc(-c2nc(N3CCOCC3)nc(N3C4CCC3COC4)n2)cc1" please 2.7

And "Cc1ccc(-c2nc(-c3ccc(NC(=O)Nc4ccc(C(=O)N5CCN(C)CC5)cc4)cc3)nc(N3CCOCC3)n2)cc1" ? 7

Next record, please: "O=C(Nc1ccc(C(=O)N2CCC(N3CCOCC3)CC2)cc1)Nc1ccc(-c2nc(N3CCOCC3)nc(N3C4CCC3COC4)n2)cc1" 5.5

Same thing, different molecule: "C[C@@H]1COCCN1c1nc(-c2ccc(NC(=O)Nc3ccc(CN4CCN(C)CC4)cc3)cc2)nc(N2C[C@@H]3C[C@H]2CO3)n1" 1520

Request: "CC(C)Nc1nc(-c2ccc(NC(=O)Nc3ccc(CCO)cc3)cc2)nc(N2CC3CCC(C2)O3)n1" 152
